Measured cell viability, listed per entry for reference.
test system: K562; assay: cell viability relative to vehicle control; higher = less cytotoxic; details: 10 µM; SRSF2 genotype: SRSF2 wt/wt;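 also: after 48 h exposure read by CellTiter-Glo luminescence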
Where a name gives a salt, the structure may show the parent alone.
outcomeMeasure: cell viability (%)

compound="O=C(O)/C=C/c1ccc(Cn2ccnc2)cc1 [Ozagrel HCl]" unitstext=% measuredvalue=96.3
compound="COCCCOc1ccnc(C[S+]([O-])c2nc3ccccc3[nH]2)c1C (stereo unspecified) [Rebeprazole sodium]" unitstext=% measuredvalue=101
compound=OC[C@@H](O)[C@@H](O)[C@@H](O)CO unitstext=% measuredvalue=96.2
compound=C[C@H]1O[C@@H](Oc2c(-c3cc(O)c(O)c(O)c3)oc3cc(O)cc(O)c3c2=O)[C@@H](O)[C@@H](O)[C@@H]1O unitstext=% measuredvalue=99.4
compound="C=C1C[C@@]23CC[C@H]4[C@@](C)(CCC[C@@]4(C)C(=O)O[C@@H]4O[C@H](CO)[C@@H](O)[C@H](O)[C@H]4O)[C@@H]2CC[C@]1(O[C@@H]1O[C@H](CO)[C@@H](O)[C@H](O[C@@H]2O[C@H](CO)[C@@H](O)[C@H](O)[C@H]2O)[C@H]1O[C@@H]1O[C@H](CO)[C@@H](O)[C@H](O)[C@H]1O)C3 [Rebaudioside A]" unitstext=% measuredvalue=102
compound="CC(C)=CC(O)C/C(C)=C/COc1c2ccoc2cc2oc(=O)ccc12 (stereo unspecified)" unitstext=% measuredvalue=76.1
compound=FC(F)c1nc2ccccc2n1-c1nc(N2CCOCC2)nc(N2CCOCC2)n1 unitstext=% measuredvalue=70
compound=COc1ccc(CC(=O)Nc2nc3c(s2)CCc2ccccc2-3)cc1OC unitstext=% measuredvalue=68.3
compound="O=C(c1ccc(OCCCc2c[nH]cn2)cc1)C1CC1 [Ciproxifan Maleate]" unitstext=% measuredvalue=87.7
compound=CC(C)=CCC[C@@H](C)CC=O unitstext=% measuredvalue=112
compound="CCCN[C@H]1CCc2nc(N)sc2C1 [Pramipexole dihydrochloride]" unitstext=% measuredvalue=110
compound=CCN(CC)C(=S)SSC(=S)N(CC)CC unitstext=% measuredvalue=53.3
compound=O=C(Nc1ccc(OC(F)(F)Cl)cc1)c1cnc(N2CC[C@@H](O)C2)c(-c2cc[nH]n2)c1 unitstext=% measuredvalue=17.1
compound="CCOC(=O)c1c(C)n(C)c2ccc(O)cc12 [Mecarbinate]" unitstext=% measuredvalue=99.8
compound=O=C(Nc1ccccc1Br)N[C@@H]1CCN(c2ccc(C(F)(F)F)cn2)C1 unitstext=% measuredvalue=91.5
compound=COc1cc2c(cc1OC(C)C)[C@H](c1ccc(Cl)cc1)N(c1ccc(N(C)C[C@H]3CC[C@H](N4CCN(C)C(=O)C4)CC3)cc1)C(=O)C2 unitstext=% measuredvalue=68.4

* * *

Quick reference: cell viability of the listed items.
tested on: K562; test: cell viability relative to vehicle control; higher = less cytotoxic; conditions: 10 µM; SRSF2 genotype: SRSF2 wt/wt
Where a name gives a salt, the structure may show the parent alone.
outcomeMeasure: cell viability (%)

molecule=Cn1cc(C(=O)Nc2ccc3c(c2)OCCO3)c2ccccc2c1=O unitstext=% measuredvalue=81.2
molecule="CNC1CCC(N(Cc2cccc(-c3ccncc3)c2)C(=O)c2sc3ccccc3c2Cl)CC1 (configuration not stated) [Smoothened Agonist (SAG) HCl]" unitstext=% measuredvalue=29.8
molecule=Cc1cc(C)nc(NS(=O)(=O)c2ccc(NC(=S)NC(=O)COc3ccc(Br)cc3Cl)cc2)n1 unitstext=% measuredvalue=85.5
molecule="COC(=O)Nc1nc2cc(Sc3ccccc3)ccc2[nH]1 [Fenbendazole (Panacur)]" unitstext=% measuredvalue=32.8
molecule="COc1cc2c(=O)c3c(O)c([C@@H]4O[C@H](CO[C@@H]5OC[C@](O)(CO)[C@H]5O)[C@@H](O)[C@H](O)[C@H]4O)c(O)cc3oc2cc1O [Polygalaxanthone III]" unitstext=% measuredvalue=98
molecule="CCC[C@@H]1C[C@@H](C(=O)N[C@@H]([C@H]2O[C@H](SC)[C@H](O)[C@@H](O)[C@H]2O)[C@H](C)Cl)N(C)C1 [Clindamycin]" unitstext=% measuredvalue=103
molecule=NC(=O)c1ccc(-c2nc(-c3ccccn3)c(-c3ccc4c(c3)OCO4)[nH]2)cc1 unitstext=% measuredvalue=97.9

* * *

system: MOLM14; experiment: cell viability relative to vehicle control; higher = less cytotoxic; conditions: 10 µM; SRSF2 genotype: SRSF2 P95H/wt
Catalogue of compounds with associated cell viability
outcomeMeasure: cell viability (%)

compound=Cc1c(NC(=O)OC[C@@H]2COCCN2)cn2ncnc(Nc3ccc4c(cnn4Cc4cccc(F)c4)c3)c12 experimentaltarget=MOLM14 outcomemeasure="cell viability" measuredvalue=63.8
compound="COc1cc(O)c(CC=C(C)C)c2c1C(=O)CC(c1ccc(O)cc1)O2 (stereo not drawn) [Isoxanthohumol]" experimentaltarget=MOLM14 outcomemeasure="cell viability" measuredvalue=94.7
compound=C[C@H](NC(=O)CCC(F)(F)F)C(=O)N[C@@H]1C(=O)N(CCO)c2ncccc2-c2ccccc21 experimentaltarget=MOLM14 outcomemeasure="cell viability" measuredvalue=109
compound=c1ccc(-c2[nH]ncc2-c2ccnc3ccccc23)nc1 experimentaltarget=MOLM14 outcomemeasure="cell viability" measuredvalue=109
compound="O=c1ncccn1[C@@H]1O[C@H](CO)[C@@H](O)[C@H]1O [Zebularine]" experimentaltarget=MOLM14 outcomemeasure="cell viability" measuredvalue=89.7
compound=NCC(=O)Nc1ccc(-n2nc(C(F)(F)F)cc2-c2ccc3c(ccc4ccccc43)c2)cc1 experimentaltarget=MOLM14 outcomemeasure="cell viability" measuredvalue=0.18
compound="OC[C@H]1O[C@@H](O[C@@H]2OC=C[C@H]3[C@H](O)[C@@H]4O[C@]4(CO)[C@@H]23)[C@H](O)[C@@H](O)[C@@H]1O [Catalpol]" experimentaltarget=MOLM14 outcomemeasure="cell viability" measuredvalue=99.9
compound=Cc1ncc(NC(=O)c2cccc(C(F)(F)F)c2)cc1-c1cnc(OC2CCOCC2)c(N2CCOCC2)c1 experimentaltarget=MOLM14 outcomemeasure="cell viability" measuredvalue=48.2

* * *

test system: MOLM14; experiment: cell viability relative to vehicle control; higher = less cytotoxic; conditions: 10 µM; SRSF2 genotype: SRSF2 wt/wt
Structures can show the parent of a compound that is named as a salt.
One threshold, 40%, splits the recorded cell viability values: lower ones are Fulfilled, equal or higher ones are Not fulfilled.

molecule="COCCCN1CCC(NC(=O)c2cc(Cl)c(N)c3c2OCC3)CC1 [Prucalopride]" experimentaltarget=MOLM14 class="Not fulfilled"
molecule="CCc1ccc(CCOc2ccc(CC3SC(=O)NC3=O)cc2)nc1 (stereo not given) [Pioglitazone hydrochloride (Actos)]" experimentaltarget=MOLM14 class="Not fulfilled"
molecule=CC#C[C@]1(O)CC[C@H]2[C@@H]3CCC4=CC(=O)CCC4=C3[C@@H](c3ccc(N(C)C)cc3)C[C@@]21C experimentaltarget=MOLM14 class="Not fulfilled"
molecule="Nc1ncnc2c1ncn2C(C=O)OC(C=O)CO (stereo not given)" experimentaltarget=MOLM14 class=Fulfilled
molecule=CC(C)[C@H](CO)Nc1nc(Nc2cccc(Cl)c2)c2ncn(C(C)C)c2n1 experimentaltarget=MOLM14 class=Fulfilled
molecule=C[C@@H]1O[C@@H](OC[C@H]2O[C@@H](Oc3cc(O)c4c(c3)O[C@H](c3ccc(O)cc3)CC4=O)[C@H](O)[C@@H](O)[C@@H]2O)[C@H](O)[C@H](O)[C@H]1O experimentaltarget=MOLM14 class="Not fulfilled"
molecule=O=c1c(-c2ccc(O)cc2)coc2cc(O)cc(O)c12 experimentaltarget=MOLM14 class="Not fulfilled"
molecule=COc1ccc(/C=C/c2cc(O)cc(O[C@@H]3O[C@H](CO)[C@@H](O)[C@H](O)[C@H]3O)c2)cc1O experimentaltarget=MOLM14 class="Not fulfilled"
molecule=COc1ccc([C@@H]2CC(=O)c3c(O)cc(O[C@@H]4O[C@H](CO)[C@@H](O)[C@H](O)[C@H]4O[C@@H]4O[C@@H](C)[C@H](O)[C@@H](O)[C@H]4O)cc3O2)cc1 experimentaltarget=MOLM14 class="Not fulfilled"
molecule=C=CC(=O)N1CCC[C@@H](n2nc(-c3ccc(Oc4ccccc4)cc3)c(C(N)=O)c2N)C1 experimentaltarget=MOLM14 class=Fulfilled
molecule=C=C[C@@H]1C[C@]1(NC(=O)[C@@H]1C[C@@H]2CN1C(=O)[C@H](C(C)(C)C)NC(=O)O[C@@H]1C[C@H]1CCCCCc1nc3ccc(OC)cc3nc1O2)C(=O)NS(=O)(=O)C1CC1 experimentaltarget=MOLM14 class="Not fulfilled"
molecule=COc1cc2nccc(Oc3ccc(NC(=O)NC4CC4)c(Cl)c3)c2cc1C(N)=O experimentaltarget=MOLM14 class=Fulfilled
molecule=CO[C@H]1O[C@@H]2O[C@@]3(C)CC[C@H]4[C@H](C)CC[C@@H]([C@H]1C)[C@@]24OO3 experimentaltarget=MOLM14 class="Not fulfilled"
molecule=COc1ccc(CCc2cc(OC)c(OC)c(OC)c2)cc1O experimentaltarget=MOLM14 class=Fulfilled
molecule=Cc1noc(NS(=O)(=O)c2ccc(N)cc2)c1C experimentaltarget=MOLM14 class="Not fulfilled"
molecule=C[C@]12CCC(=O)C=C1[C@@H]1C[C@@H]1[C@H]1[C@@H]3[C@@H]4C[C@@H]4[C@@]4(CCC(=O)O4)[C@@]3(C)CC[C@@H]12 experimentaltarget=MOLM14 class="Not fulfilled"
molecule=COc1cc2ncnc(Sc3nnc(C)s3)c2cc1OC experimentaltarget=MOLM14 class=Fulfilled
molecule=Nc1ncnc2c1ncn2[C@@H]1O[C@H](COP(=O)(O)O)[C@@H](O)[C@H]1O experimentaltarget=MOLM14 class="Not fulfilled"
molecule="COc1ccc(CCC(=O)c2c(O)cc(O[C@@H]3O[C@H](CO)[C@@H](O)[C@H](O)[C@H]3O[C@@H]3O[C@@H](C)[C@H](O)[C@@H](O)[C@H]3O)cc2O)cc1O [Neohesperidin dihydrochalcone (Nhdc)]" experimentaltarget=MOLM14 class="Not fulfilled"
molecule="COc1cc(F)c(F)c(Nc2ccc(I)cc2F)c1NS(=O)(=O)C1(C[C@H](O)CO)CC1 [Refametinib (RDEA119, Bay 86-9766)]" experimentaltarget=MOLM14 class=Fulfilled
molecule=CCS(=O)(=O)Nc1ccc(Oc2ccc(F)cc2F)c(-c2cn(C)c(=O)c3[nH]ccc23)c1 experimentaltarget=MOLM14 class=Fulfilled
molecule="c1ccc2c(c1)CCCC2C1=NCCN1 (stereo not given) [Tetrahydrozoline HCl]" experimentaltarget=MOLM14 class="Not fulfilled"
molecule="O=C(Nc1nccs1)C(c1cc(F)ccc1O)N1Cc2ccccc2C1=O (stereo not given)" experimentaltarget=MOLM14 class="Not fulfilled"
molecule=CC(C)N(CCC(=O)c1ccc2ccccc2c1)Cc1ccccc1 experimentaltarget=MOLM14 class=Fulfilled
molecule=O=C(Nc1c(Cl)cncc1Cl)c1ccc(OC(F)F)c(OCC2CC2)c1 experimentaltarget=MOLM14 class="Not fulfilled"
molecule=C[C@@]12CC[C@@H]3[C@@](CC[C@H]4[C@@]3(C)CCC[C@@]4(C)C(=O)O)(CC1=O)C2 experimentaltarget=MOLM14 class="Not fulfilled"
molecule="Nc1ncnc2c1ncn2[C@@H]1O[C@H](CO)[C@@H](O)[C@@H]1O [Vidarabine (Vira-A)]" experimentaltarget=MOLM14 class="Not fulfilled"
molecule=Cc1cn([C@H]2O[C@@H](CO)[C@H](O)[C@H]2F)c(=O)[nH]c1=O experimentaltarget=MOLM14 class="Not fulfilled"
molecule=CC12CCC(CC1)C(C)(C)O2 experimentaltarget=MOLM14 class="Not fulfilled"

From: the supplement of paper PMC10981050
